Entries and their folding stability dG values follow.
B1: 6NMW (parent)
chain: QGDIVVALYPYDGIHPDDLSFKKGEKMKVLEEHGEWWKAKSLLTKKEGFIPSNYVAKLN

variants of: B1; test: folding stability dG (cDNA display proteolysis); higher = more stable; details: PBS, room temperature
OBSERVATION_TYPE: folding stability dG

- Y9H: 2.81 kcal/mol
- D18G: 3.33 kcal/mol
- G24E: 1.16 kcal/mol
- A56H: 3.07 kcal/mol
- K45F: 4.45 kcal/mol
- V5Q: -0.613 kcal/mol
- D17G: 4.77 kcal/mol
- V5K: -0.356 kcal/mol
- K57W: 3.87 kcal/mol
- K28F: 3.91 kcal/mol
- Q1D: 3.76 kcal/mol
- H33Y: 3.6 kcal/mol
- F49G: 0.912 kcal/mol
- I14G: 2.9 kcal/mol
- A56G: 2.51 kcal/mol
- L8Q: 1.62 kcal/mol
- T44M: 0.443 kcal/mol
- E35L: 4.23 kcal/mol
- K38R: 4.06 kcal/mol
- I14T: 3.68 kcal/mol
- I14P: 2.57 kcal/mol
- K26T: 3.12 kcal/mol
- D18C: 4.07 kcal/mol
- L43C: 3.7 kcal/mol
- K28Y: 4.2 kcal/mol
- H15E: 2.54 kcal/mol
- T44S: 3.08 kcal/mol
- L42G: -0.156 kcal/mol
- N53R: 4.09 kcal/mol
- G13C: 1.96 kcal/mol
- D18T: 3.97 kcal/mol
- S20N: 2.01 kcal/mol
- Y9F: 3.72 kcal/mol
- I4D: 1.12 kcal/mol
- G2R: 3 kcal/mol
- Y11W: 4.27 kcal/mol
- Q1W: 4.06 kcal/mol
- K45E: 4.09 kcal/mol
- E47I: 4.37 kcal/mol
- E47K: 2.55 kcal/mol
- F49S: 1.94 kcal/mol
- D3K: 4.12 kcal/mol
- G34E: 1.86 kcal/mol
- S52G: 2.51 kcal/mol
- W36N: 2.13 kcal/mol
- I14D: 2.68 kcal/mol
